src = patent US20180086841A1

- MEASURED_TARGET: T1, His9G-tagged human CD27 recombinant protein (human, UniProt P26842 21-191)
- T1 construct: In-house, transient transfection of HEK293 cells; also called Human CD27/His
- PROTOCOL_SUMMARY: SPR Biacore 4000, antibody captured on anti-human Fc, His9G-tagged CD27 injected, 1:1 fit;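 note: Double-referenced SPR (blank anti-Fc surface and buffer injection subtracted), KD derived from association and dissociation rate constants, with human and cynomolgus CD27 as analytes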

- BINDER: "hCD27.131A VH8VL7 huIgG1 (antibody, V domains shown) VH: EIQLVQSGAEVKKPGASVKVSCKASGYTFTNYGMNWVKQAPGQGLKWMGWINTNTGEPTYAEEFKGRFTFTLDTSISTAYMELSSLRNEDTAVYYCAREGDAMDYWGQGTTVTVSS VL: EIVLTQSPATLSLSPGERATLSCSASSSVSYMHWYQQKPGQAPKRWIYDTSKLASGVPARFSGSGSGTSYSLTISSLEPEDFATYYCQQWNSYPFTFGQGTKLEIK"
  Kd / nM: 63.3
- BINDER: "hCD27.131A VH8VL6 huIgG1 (antibody, V domains shown) VH: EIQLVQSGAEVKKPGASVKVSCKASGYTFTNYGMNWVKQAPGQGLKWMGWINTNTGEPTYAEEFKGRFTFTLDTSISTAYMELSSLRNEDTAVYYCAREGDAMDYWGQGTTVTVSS VL: EIVLTQSPATLSLSPGERATLSCSASSSVSYMHWYQQKPGQAPKRWIYDTSKLASGVPARFSGSGSGTDYSLTISSLEPEDFAVYYCQQWNSYPFTFGQGTKLEIK"
  Kd / nM: 64.4
- BINDER: "hCD27.131A VH7VL7 huIgG1 (antibody, V domains shown) VH: EIQLVQSGAEVKKPGASVKISCKASGYTFTNYGMNWVKQAPGQGLKWMGWINTNTGEPTYAEEFKGRFTFTLDTSATTAYLEISSLRSEDTAVYYCAREGDAMDYWGQGTTVTVSS VL: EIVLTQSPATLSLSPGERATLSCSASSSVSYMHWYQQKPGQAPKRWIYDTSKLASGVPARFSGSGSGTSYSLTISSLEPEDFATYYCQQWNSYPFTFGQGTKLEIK"
  Kd / nM: 38.9
